Data provenance is patent US20240368122A1.

Molecular target: JAK2 JH1 WT (T842-G1132) (Homo sapiens, UniProt O60674)
Construct: *JAK2 JH1 WT (T842-G1132) N-His60-avi-TEV; His6 (N); TEV cleavage site (N); purchased Biortus
Sequence (O60674 842-1132): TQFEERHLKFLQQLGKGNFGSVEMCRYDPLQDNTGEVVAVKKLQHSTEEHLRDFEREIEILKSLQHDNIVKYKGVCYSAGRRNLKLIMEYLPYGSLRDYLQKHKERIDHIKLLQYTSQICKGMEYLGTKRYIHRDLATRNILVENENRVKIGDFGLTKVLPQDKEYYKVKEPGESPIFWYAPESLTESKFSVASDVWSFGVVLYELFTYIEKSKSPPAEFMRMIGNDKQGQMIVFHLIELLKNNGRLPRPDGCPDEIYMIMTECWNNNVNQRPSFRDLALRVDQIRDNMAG
Assay: Surface Plasmon Resonance (SPR) binding assay, JAK2 JH1 domain
Settings: SPR, JAK2 JH1 domain
Recorded Kd values for a group of molecules are listed next.
READOUT NAME: Kd

[
  {
    "COMPOUND": "CNC(=O)c1nnc(NC(=O)C2CC2)cc1Nc1ccc(C)c(-c2ccc(C(=O)N(C)Cc3cc(C#N)ccn3)nc2)c1OC",
    "DATA VALUE": "5 to 100 µM"
  },
  {
    "COMPOUND": "C#Cc1cccc(CN2CC(n3cc(-c4cccc(Nc5cc(NC(=O)C6CC6)nnc5C(=O)NC)c4OC)cn3)C2)n1",
    "DATA VALUE": "0.5 to 5 µM"
  },
  {
    "COMPOUND": "CNC(=O)c1nnc(NC(=O)C2CC2)cc1Nc1ccc(C)c(-c2ccc(C(=O)N(C)Cc3ccn(C)n3)nc2)c1OC",
    "DATA VALUE": "5 to 100 µM"
  },
  {
    "COMPOUND": "CNC(=O)c1nnc(NC(=O)C2CC2)cc1Nc1cccc(-c2ccc(C(=O)NCc3cccn(C)c3=O)nc2)c1OC",
    "DATA VALUE": "5 to 100 µM"
  }
]

---

Test system: TF1 JAK2 V617F STAT5 reporter
Test: Cellular TF1 STAT5 assay (luciferase reporter), JAK2 V617F
Format: cell-based
Details: TF1 JAK2 V617F, read-out: Cell PD TF1 V617F STAT5 (IC50)
// reported IC50 per item

[
  {
    "MOLECULE": "CNC(=O)c1nnc(NC(=O)C2CC2)cc1Nc1cccc(-c2ccc(C(=O)N(C)Cc3cn4c(n3)CCCC4)nc2)c1OC [Compound 84]",
    "IC50": "5 to 100 µM"
  },
  {
    "MOLECULE": "CNC(=O)c1nnc(NC(=O)C2CC2)cc1Nc1cccc(-c2cnc(C(=O)N(C)Cc3cn(C)nc3C(F)(F)F)nc2)c1OC [Compound 64]",
    "IC50": "0.05 to 0.5 µM"
  },
  {
    "MOLECULE": "CNC(=O)c1cnc(NC(=O)C2CC2)cc1Nc1cccc(-c2ccc(C(=O)N(C)Cc3cc(C#N)ccn3)nc2)c1OC [Compound 176]",
    "IC50": "0.05 to 0.5 µM"
  },
  {
    "MOLECULE": "CNC(=O)c1nnc(NC(=O)C2CC2)cc1Nc1cccc(-c2ccc(C(=O)N(C)Cc3nncs3)nc2)c1OC [Compound 146]",
    "IC50": "5 to 100 µM"
  },
  {
    "MOLECULE": "CNC(=O)c1nnc(NC(=O)C2CC2)cc1Nc1cccc(-c2cnc(C(=O)N(C)Cc3ccon3)c(F)c2)c1OC [Compound 98]",
    "IC50": "5 to 100 µM"
  },
  {
    "MOLECULE": "CNC(=O)c1nnc(NC(=O)C2CC2)cc1Nc1cccc(-c2ccc(C(=O)N(C)Cc3cc(C(F)F)ccn3)nc2)c1OC [Compound 158]",
    "IC50": "0.05 to 0.5 µM"
  },
  {
    "MOLECULE": "CNC(=O)c1nnc(NC(=O)C2CC2)cc1Nc1cccc(-c2cnc(C(=O)N(CCOC)Cc3cccn(C)c3=O)c(F)c2)c1OC [Compound 21]",
    "IC50": "0.5 to 5 µM"
  },
  {
    "MOLECULE": "CNC(=O)c1nnc(NC(=O)C2CC2)cc1Nc1cccc(-c2cnc(C(=O)NCc3cccn(C)c3=O)cn2)c1OC [Compound 7]",
    "IC50": "5 to 100 µM"
  },
  {
    "MOLECULE": "CNC(=O)c1nnc(NC(=O)C2CC2)cc1Nc1cccc(-c2cnn(C3CN(Cc4ccccc4)C3)c2)c1OC [Compound 130]",
    "IC50": "0.5 to 5 µM"
  },
  {
    "MOLECULE": "CNC(=O)c1nnc(NC(=O)C2CC2)cc1Nc1cccc(-c2cnc(C(=O)N(C)Cc3cc(C#N)ccn3)cc2C)c1OC [Compound 32]",
    "IC50": "0.5 to 5 µM"
  },
  {
    "MOLECULE": "[2H]C([2H])([2H])NC(=O)c1nnc(NC(=O)C2CC2)cc1Nc1cccc(-c2cnc(C(=O)N(Cc3ccn(C)n3)C([2H])([2H])[2H])nc2)c1OC [Compound 63]",
    "IC50": "0.5 to 5 µM"
  },
  {
    "MOLECULE": "C#Cc1cccc(CN2CC(n3cc(-c4cccc(Nc5cc(NC(=O)C6CC6)nnc5C(=O)NC)c4OC)cn3)C2)n1 [Compound 152]",
    "IC50": "0.05 to 0.5 µM"
  },
  {
    "MOLECULE": "CNC(=O)c1nnc(NC(=O)C2CC2)cc1Nc1cccc(-c2ncc(NC(=O)Cc3cccn(C)c3=O)cn2)c1OC [Compound 6]",
    "IC50": "5 to 100 µM"
  },
  {
    "MOLECULE": "CNC(=O)c1nnc(NC(=O)C2CC2)cc1Nc1cccc(-c2ccc(C(=O)N(C)Cc3ccc(OC(F)F)cc3)nc2)c1OC [Compound 85]",
    "IC50": "0.5 to 5 µM"
  },
  {
    "MOLECULE": "CNC(=O)c1nnc(NC(=O)C2CC2)cc1Nc1cccc(-c2cnn(C3CN(Cc4cscn4)C3)c2)c1OC [Compound 124]",
    "IC50": "0.05 to 0.5 µM"
  },
  {
    "MOLECULE": "CNC(=O)c1nnc(NC(=O)C2CC2)cc1Nc1cccc(-c2ccc(C(=O)N(C)Cc3ccn(C)n3)nc2)c1OC [Compound 26]",
    "IC50": "0.05 to 0.5 µM"
  },
  {
    "MOLECULE": "CNC(=O)c1nnc(NC(=O)C2CC2)cc1Nc1cccc(-c2ccc(C(=O)N(C)Cc3cc(S(C)(=O)=O)ccn3)cc2)c1OC [Compound 73]",
    "IC50": "0.05 to 0.5 µM"
  },
  {
    "MOLECULE": "CNC(=O)c1nnc(NC(=O)C2CC2)cc1Nc1ccc(C)c(-c2cc(C3CCN(Cc4cc(C#N)ccn4)CC3)n(C)n2)c1OC [Compound 186]",
    "IC50": "5 to 100 µM"
  },
  {
    "MOLECULE": "CNC(=O)c1nnc(NC(=O)C2CC2)cc1Nc1cccc(-c2ccc(C(=O)N(C)Cc3cc(S(C)(=O)=O)ccn3)nc2)c1OC [Compound 72]",
    "IC50": "0.05 to 0.5 µM"
  }
]
